pIC50 values recorded for full length MPS1 (Homo sapiens (Human), UniProt P33981)
Just so you know, pIC50 here is -log10 of the concentration in molar units; reply with that number alone.

Param item: COc1cc(C(=O)N2CC(OC)C2)ccc1Nc1cc2c(-c3cn(C)nc3C)cccc2cn1 ; param system: full length MPS1 (Homo sapiens (Human), UniProt P33981); output pIC50: 7.57

The value of pIC50 recorded for COc1cc(-c2cncn2C)ccc1Nc1ncc2ccnc(NCC(C)(C)C)c2n1 when tested on full length MPS1 (Homo sapiens (Human), UniProt P33981) reads 8.70

COc1cc(-c2cnn(C)c2)ccc1Nc1ncc2ccnc(N3CCC(CO)C3)c2n1 (centres unmarked) on full length MPS1 (Homo sapiens (Human), UniProt P33981) gives pIC50 = 8.52

Short answer on full length MPS1 (Homo sapiens (Human), UniProt P33981) for COc1cc(-c2cnn(C)c2)ccc1Nc1ncc2ccnc(N3CC(C#N)C3)c2n1 , pIC50: 8.10

The molecule COc1cc(-c2cnn(C)c2)ccc1Nc1ncc2ccnc(NC(C)(C)CO)c2n1 on full length MPS1 (Homo sapiens (Human), UniProt P33981): pIC50 was 7.77

Summary: COCC(CO)Nc1nccc2cnc(Nc3ccc(-c4cnn(C)c4)cc3OC)nc12 (centres unmarked) , full length MPS1 (Homo sapiens (Human), UniProt P33981), pIC50 = 8.40

// pIC50 (full length MPS1 (Homo sapiens (Human), UniProt P33981)) for COc1cc(-c2cnn(C)c2)ccc1Nc1ncc2ccnc(NCCC(C)C)c2n1 = 7.68

Here COc1cc(-c2cnn(C)c2)ccc1Nc1ncc2ccnc(NC[C@@]3(C)CCOC3)c2n1 was tested on full length MPS1 (Homo sapiens (Human), UniProt P33981), and its pIC50 came to 8.52

* * *

system.under.test: full length MPS1 (Homo sapiens (Human))
measure.name: IC50 (nM)
Entry rule: numbers only, all in nM.

// molecule COc1cc(-c2cnn(C)c2)ccc1Nc1ncc2ccnc(NCC3CCOC3)c2n1 (centres unmarked) , assay full length MPS1 (Homo sapiens (Human)), IC50 value: 5

Reading of IC50 for COc1cc(-c2cnn(C)c2)ccc1Nc1ncc2ccnc(N3CC4(CCOC4)C3)c2n1 with full length MPS1 (Homo sapiens (Human)): 3

The molecule COc1cc(-c2cnn(C)c2CO)ccc1Nc1ncc2cc(C)nc(NCC(C)(C)OC)c2n1 , tested on full length MPS1 (Homo sapiens (Human)), showed IC50 of 9

Entry COc1cc(C(=O)N(C)C)ccc1Nc1cc2c(-c3cnn(C)c3)cccc2cn1 under full length MPS1 (Homo sapiens (Human)) had IC50 of 28

* * *

system.under.test: UniProt:P33981
pIC50: −log10 of the molar value.
Use 8 as the dividing line for pIC50, with the line itself on the Satisfied side and lower values as Not satisfied.

Recorded results for 5 compounds are shown here.
[in] Determine whether this compound has pIC50 no lower than 8: COc1cc(-c2cnn(C)c2)ccc1Nc1ncc2ccnc(NCC3(F)COC3)c2n1 [Example 124]
[out] Not satisfied

[in] Is reported pIC50 greater than or equal to 8 here: COc1cc(C(=O)N2CC(OC)C2)ccc1Nc1cc2c(-c3ccnn3C)cccc2cn1 [Example 9]
[out] Not satisfied

[in] Does the reported pIC50 for COc1cc(-c2cnc(C)n2C)ccc1Nc1ncc2cc(C)nc(NCC(C)(C)OC)c2n1 [Example 158] fall at or above the 8 mark?
[out] Satisfied

[in] Form field: pIC50 at least 8? Entry: COC1CN(C(=O)c2ccc(Nc3cc4c(-c5cnn(C)c5)cccc4cn3)c(Cl)c2)C1 [Example 22]
[out] Not satisfied

[in] Quick check: does COc1cc(-c2ncnn2C)ccc1Nc1ncc2cc(C)nc(NCC(C)(C)OC)c2n1 [Example 196] have pIC50 greater than or equal to 8?
[out] Not satisfied

New cases:
[in] Test whether the compound CCOc1cc(-c2nncn2C)ccc1Nc1ncc2cc(C)nc(NCC(C)(C)C)c2n1 [Example 182] records pIC50 of 8 or higher.
[out] Satisfied

[in] Say whether COc1cc(-c2cnn(C)c2)ccc1Nc1ncc2ccnc(NC(C)C3CC3)c2n1 (centres unmarked) [Example 75] shows pIC50 of 8 or more.
[out] Satisfied

[in] Given COc1cc(-c2cnn(C)c2)ccc1Nc1ncc2ccnc(NC3COC3)c2n1 [Example 111] , state whether its pIC50 is at least 8.
[out] Not satisfied

[in] Record COc1nc(-c2cnc(C)n2C)ccc1Nc1ncc2ccnc(NCC(C)(C)OC)c2n1 [Example 162] ; criterion: pIC50 no lower than 8. Met?
[out] Satisfied

* * *

system.under.test: full length MPS1 (Homo sapiens (Human), UniProt P33981)
Sequence (P33981 whole entry): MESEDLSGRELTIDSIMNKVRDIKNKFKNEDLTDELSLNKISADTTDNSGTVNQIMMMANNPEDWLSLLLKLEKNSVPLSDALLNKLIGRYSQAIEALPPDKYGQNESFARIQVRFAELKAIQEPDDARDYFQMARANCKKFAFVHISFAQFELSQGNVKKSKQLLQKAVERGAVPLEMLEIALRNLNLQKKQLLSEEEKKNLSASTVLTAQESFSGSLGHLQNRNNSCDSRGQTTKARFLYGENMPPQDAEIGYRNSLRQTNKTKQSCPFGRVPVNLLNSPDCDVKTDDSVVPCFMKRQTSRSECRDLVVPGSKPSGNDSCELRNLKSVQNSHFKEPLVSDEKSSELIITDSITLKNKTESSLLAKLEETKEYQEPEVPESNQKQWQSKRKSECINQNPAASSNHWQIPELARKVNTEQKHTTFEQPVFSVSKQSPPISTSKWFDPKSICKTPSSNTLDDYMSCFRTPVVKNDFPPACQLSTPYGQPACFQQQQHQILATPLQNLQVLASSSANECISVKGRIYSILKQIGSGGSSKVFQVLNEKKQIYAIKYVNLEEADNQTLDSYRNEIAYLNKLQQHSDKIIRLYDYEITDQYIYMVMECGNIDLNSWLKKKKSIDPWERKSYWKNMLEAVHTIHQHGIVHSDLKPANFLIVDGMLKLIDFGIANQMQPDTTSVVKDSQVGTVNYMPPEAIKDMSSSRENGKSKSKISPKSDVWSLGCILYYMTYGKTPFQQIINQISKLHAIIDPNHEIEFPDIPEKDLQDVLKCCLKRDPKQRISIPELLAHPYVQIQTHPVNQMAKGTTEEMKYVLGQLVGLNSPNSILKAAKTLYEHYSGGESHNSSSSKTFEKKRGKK
method.summary: Measurement of inhibition of MPS1 kinase (Caliper EZ reader mobility-shift enzyme assay)
Assay type: biochemical
condition.notes: full length MPS1 12.5 nM or 3 nM, H236 peptide 5 μM, ATP 10 μM, 60 min at room temperature
Entries annotated with measured log10 of IC50
Hello, just confirming the data are log10 of IC50 with units of nM.

These recorded examples may help you get a feel for the data.
The recorded log10 of IC50 for COc1cc(-c2cnn(C)c2)ccc1Nc1ncc2ccnc(N3CCS(=O)(=O)CC3)c2n1 is 1.04

Input COc1cc(C(=O)N2CC(OC)C2)ccc1Nc1cc2c(-c3cnn(CCN(C)C)c3)cccc2cn1 . Output log10 of IC50: 1.79

So for COC(C)(C)CNc1nccc2cnc(Nc3ccc(-c4cnn(C)c4)cc3OC(F)F)nc12 , the logged log10 of IC50 turned out to be 0.30

For reference, reported log10 of IC50 for COc1cc(-c2cnn(C)c2)ccc1Nc1ncc2ccnc(N3CCC4(CCOC4)C3)c2n1 (centres unmarked) stands at 0.48

Reported log10 of IC50 for COc1cc(-c2cnn(C)c2)ccc1Nc1ncc2ccnc(N3CCC(F)(F)C3)c2n1 was 1.08

Further cases:
The molecule COc1cc(-c2cnn(C)c2)ccc1Nc1ncc2ccnc(NC(CO)CO)c2n1 showed log10 of IC50 equal to 0.60

Data point: COc1cc(-c2cnn(C)c2)ccc1Nc1ncc2ccnc(NCC3(C)CCOC3)c2n1 (racemic) ; log10 of IC50 = 0.48

Entry COCCn1c(-c2ccc(Nc3ncc4ccnc(NCC5(C)CCOC5)c4n3)c(OC)c2)cnc1C (centres unmarked) , log10 of IC50 reported as 0.30

* * *

full length MPS1 (Homo sapiens (Human), UniProt P33981): recorded IC50 for assorted compounds
Give just the number in nM; leave the unit off.

Summary: COc1cc(C(=O)N2CC(OC)C2)ccc1Nc1cc2c(-c3cccnc3)cccc2cn1 [Example 21] , full length MPS1 (Homo sapiens (Human), UniProt P33981), IC50 = 30

Considering COc1cc(-c2cn(C)nc2C)ccc1Nc1ncc2ccnc(NCC3(C)CCOC3)c2n1 (centres unmarked) [Example 191] , its IC50 with full length MPS1 (Homo sapiens (Human), UniProt P33981) was recorded as 2

The reported IC50 value, full length MPS1 (Homo sapiens (Human), UniProt P33981), for COc1cc(-c2nncn2C)ccc1Nc1ncc2ccnc(NCC(C)(C)C)c2n1 [Example 175] reads 2

Fill in: full length MPS1 (Homo sapiens (Human), UniProt P33981) IC50 for COC(C)(C)CNc1nccc2cnc(Nc3ccc(Cl)cc3OC(F)F)nc12 [Example 202] = 70

Observed IC50, full length MPS1 (Homo sapiens (Human), UniProt P33981), COc1cc(-c2cnn(C)c2)ccc1Nc1ncc2ccnc(-c3cnn(CC(F)F)c3)c2n1 [Example 93] : 10

Next:
# IC50 measured on full length MPS1 (Homo sapiens (Human), UniProt P33981) for item COc1cc(C(=O)N2CC(OC)C2)ccc1Nc1cc2c(-c3ccn(C)n3)cccc2cn1 [Example 12] = 26

For COc1cc(-c2cnn(C)c2C)ccc1Nc1ncc2ccnc(N3CCC4(COC4)C3)c2n1 [Example 145] on full length MPS1 (Homo sapiens (Human), UniProt P33981), measured IC50 was 2

Item: COc1cc(-c2cnn(C)c2)ccc1Nc1ncc2ccnc(NCC3(C)COC3)c2n1 [Example 109] | System: full length MPS1 (Homo sapiens (Human), UniProt P33981) | IC50: 2

* * *

system.under.test: full length MPS1 (Homo sapiens (Human))
Reported pIC50 values for a set of molecules
Worth noting: pIC50 values are minus log10 of concentrations stated in mol/L.

Below, each entry is followed by its recorded pIC50 result.
Readout pIC50 for COc1cc(-c2cnn(C)c2)ccc1Nc1ncc2ccnc(N[S+]([O-])C(C)(C)C)c2n1 (racemic) [Example 143] , test system full length MPS1 (Homo sapiens (Human)), was 8.30

Tested on full length MPS1 (Homo sapiens (Human)): COc1cc(-c2nncn2C)ccc1Nc1ncc2c(C)cnc(NCC3(C)CCOC3)c2n1 (centres unmarked) [Example 156] . Observed pIC50: 8.30

The molecule COc1cc(-c2cn(C)nc2C)ccc1Nc1ncc2cc(C)nc(NCC(C)(C)OC)c2n1 [Example 192] on full length MPS1 (Homo sapiens (Human)): pIC50 was 8.30

Entry COc1cc(-c2cnc(C)n2C)ccc1Nc1ncc2cc(C)nc(NCC(C)(C)C)c2n1 [Example 177] ; assay system full length MPS1 (Homo sapiens (Human)); pIC50 recorded at 8.30

Reported pIC50 (full length MPS1 (Homo sapiens (Human))) for entry COc1cc(C(=O)N2CC(OC)C2)ccc1Nc1cc2c(-c3cnn(C(C)C)c3)cccc2cn1 [Example 7] is 7.96

Measured on full length MPS1 (Homo sapiens (Human)), COc1cc(C2CCOCC2)ccc1Nc1ncc2ccnc(NCC3(C)CCOC3)c2n1 (centres unmarked) [Example 154] has a documented pIC50 of 8.15

Reported pIC50 (full length MPS1 (Homo sapiens (Human))) for entry COc1cc(-c2cnn(C)c2)ccc1Nc1ncc2ccnc(NC[C@]3(C)CCOC3)c2n1 [Example 141] is 8.52

Now for another entry.
Note to self: pIC50 of COc1cc(-c2cnn(C)c2)ccc1Nc1ncc2ccnc(NCC(C)(C)O)c2n1 [Example 71] with full length MPS1 (Homo sapiens (Human)) was 8.22
